Test system: SN12C renal
RUN DESCRIPTION: NCI-60 one-dose screen, 48 h (100 = growth as untreated, 0 = no growth, -100 = all killed)
DETAILS: 10 µM unless noted
About 83,000 compounds went through this panel and 20% of them were active in at least one assay; those are over-represented in the sample as a whole.
The label label 1 is reserved for growth strictly under 30%; label 0 covers values equal to or above it.

| COMPOUND | DISCRETE LABEL |
| --- | --- |
| CC1(C)N=C(N)N=C(N)N1c1ccc(CCCCc2ccc(Cl)c(S(=O)(=O)F)c2)c(Cl)c1 | label 1 |
| COc1cc(/C=N/C2=C(C#N)C(c3ccco3)c3c(c4cc(C)ccc4oc3=O)O2)cc(OC)c1OC (stereo unspecified) | label 0 |
| Brc1ccc2c(c1)c(-c1nc(-c3c[nH]c4ncccc34)cs1)cn2CCN1CCCCC1 | label 0 |
| CC(=O)O[C@H]1CC[C@]2(C)[C@H]3CC[C@]4(C)[C@@H](OC(C)=O)CC[C@H]4[C@@H]3[C@@H](C)[C@]2(O)C1 | label 0 |
| CCCc1cc(O)c2c3c(c(=O)oc2c1)CN(C)CC3 | label 0 |
| CC[C@H](C)[C@H](NC(=O)[C@H]1CCCCN1C)C(=O)N(C)[C@H](C[C@@H](OC(C)=O)c1cccc(C(=O)N[C@@H](Cc2ccccc2)C[C@H](C)C(=O)O)n1)C(C)C | label 1 |
| Cc1sc2c(c1C)C(c1ccc(Cl)cc1)=N[C@@H](CC(=O)OC(C)(C)C)c1nnc(C)n1-2 | label 0 |
| NC(N)=N/N=C\c1c[nH]c2ccc(Br)cc12 | label 0 |
| O=C1C(=Cc2cn(Cc3ccccc3)c3ccccc23)C(=O)N(Cc2ccccc2)C(=O)N1Cc1ccccc1 | label 0 |
| CCn1c2ccccc2c2cc(C(=O)c3cccc4c3CCCN4)ccc21 | label 0 |
| COC(=O)[C@@]1(C)CC[C@]2(C)CC[C@]3(C)C4=CC=C5C(=CC(=O)C(O)=C5C)[C@]4(C)CC[C@@]3(C)[C@@H]2C1 | label 1 |
| COC(=O)CC12CC(NC(=O)c3csc([C@@H](C[C@H](C(C)C)N(C)C(=O)[C@@H](NC(=O)[C@H]4CCCCN4C)C(C)C)OC(C)=O)n3)(C1)C2 | label 1 |
| C/C(=C\c1ccn(-c2ccc(N)c(F)c2)n1)[C@@H]1C[C@@H]2O[C@]2(C)CCC[C@H](C)[C@H](O)[C@@H](C)C(=O)C(C)(C)[C@@H](O)CC(=O)O1 | label 0 |
| O=C([O][Hg][c]1ccccc1)c1ccccc1 | label 1 |
| COc1ccc(/C=C\c2cc(OC)c(OC)c(OC)c2)c(NS(=O)(=O)c2ccc(F)cc2)c1O | label 1 |
| Clc1ccc(CO/N=C(\Cn2ccnc2)c2ccc(Cl)cc2Cl)c(Cl)c1 | label 1 |
| CC(=O)O[C@H](C[C@H](C(C)C)N(C)C(=O)[C@@H](NC(=O)[C@H]1CCCCN1C)C(C)C)c1nc(C(=O)NC2CCC(C(=O)O)CC2)cs1 (stereo partly specified) | label 1 |
| CC(=O)O[C@H]1C(=O)[C@@]2(C)[C@H]([C@H](OC(=O)c3ccccc3)[C@]3(O)C[C@H](OC(=O)[C@H](OC(=O)OC[C@H]4COC(C)(C)O4)[C@@H](NC(=O)c4ccccc4)c4ccccc4)C(C)=C1C3(C)C)[C@]1(OC(C)=O)CO[C@@H]1C[C@@H]2O | label 1 |
| CC1(C)N=C(N)N=C(N)N1c1ccc(CCC(=O)Nc2ccc(S(=O)(=O)F)cc2)c(Cl)c1 | label 1 |
| c1ccc(Nc2nc(-c3ccccc3)c[se]2)cc1 | label 0 |
| CC(=O)c1ccc(C(=O)NCC2CCC3(CC2)OOC2(CCCCC2)OO3)cc1 | label 0 |
| Nc1c(F)cc(-c2nc3cc(F)ccc3[se]2)cc1Br | label 0 |
| C[C@]12CC[C@@H]3c4ccc(Oc5nc(N6CC6)nc(N6CC6)n5)cc4CC[C@H]3[C@@H]1CCC2=O | label 1 |
| Fc1c[c-]c(-c2ccccn2)c(F)c1.[CH3-].[Pt+2].c1ccc([PH+](c2ccccc2)c2ccccn2)cc1 | label 1 |
| Cn1cc(C2=C(c3cn(C4CCN(Cc5ccccn5)CC4)c4ccccc34)C(=O)NC2=O)c2ccccc21 | label 0 |
| O=C(O)C(O)C(O)C1[O][Sb]([c]2ccc([N+](=O)[O-])cc2)[O]C1CO (stereo unspecified) | label 0 |
| O=[As](O)(O)c1ccccc1[As](=O)(O)O | label 0 |
| COc1ccc(/C=C\c2cc(OC)c(OC)c(OC)c2)cc1OCC(=O)Nc1nc2ccc(F)cc2s1 | label 0 |
| CC12CC(=O)C3(SC#N)C(CCC4=CC(=O)CCC43C)C1CCC2=O (stereo unspecified) | label 0 |
| O=c1[nH]cc(N(CCCl)CCCl)c(=O)[nH]1 | label 0 |
| Nc1ccc2c(c1)oc1ccccc12 | label 0 |
| CSc1nc(Cl)cc(N2CC2)n1 | label 0 |
| CC(C)=CCc1c(O)c(C(=O)CC(C)C)c(O)c2c(-c3ccccc3)cc(=O)oc12 | label 0 |
| C[S+]1C=Cc2ccccc2C1c1ccc(Cl)cc1 (stereo unspecified) | label 0 |
| CC(=O)Nc1nc2c(s1)CC[C@@]1(C)C2=CC[C@H]2[C@@H]3CC[C@H](O)[C@@]3(C)CC[C@@H]21 | label 0 |
| Clc1ccc(COC(Cn2ccnc2)c2ccc(Cl)cc2Cl)cc1 (stereo unspecified) | label 0 |
